The origin of these recorded values is ChEMBL document CHEMBL1201861.

# System: COLO-320-HSR;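 note: growth inhibition of COLO-320-HSR cells, determined with a cell viability assay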
# Procedure Summary: cells
# Type: functional, cell-based
# Condition: Homo sapiens
# Description: SANGER: Inhibition of human COLO-320-HSR cell growth in a cell viability assay.
Assay Readout: IC50

Query block: What does the record list as IC50 for C[C@]1(O)C[C@@H](c2nc(-c3ccc4ccc(-c5ccccc5)nc4c3)c3c(N)nccn32)C1 [LINSITINIB] ?
Result block: 0.414 µM

Query block: What does the record list as IC50 for Cc1cc(Nc2cc(N3CCN(C)CC3)nc(Sc3ccc(NC(=O)C4CC4)cc3)n2)n[nH]1 [TOZASERTIB] ?
Result block: > 2 µM

Query block: What does the record list as IC50 for C=CCNC1=C2C[C@@H](C)C[C@H](OC)[C@H](O)[C@@H](C)/C=C(\C)[C@H](OC(N)=O)[C@@H](OC)/C=C\C=C(/C)C(=O)NC(=CC1=O)C2=O [TANESPIMYCIN] ?
Result block: > 1 µM

----------
# Tested on: SW1573;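 note: growth inhibition of SW1573 cells, read out with a cell viability assay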
# Procedure Summary: cells
# Assay type: functional, cell-based, Homo sapiens
# Condition: Homo sapiens, SW1573
# Description: SANGER: Inhibition of human SW1573 cell growth in a cell viability assay.
pIC50: −log10 of the molar value.
For each entry below, report its pIC50 value.

Query block: What does the record list as pIC50 for CC(=O)O[C@@]12CO[C@@H]1C[C@H](O)[C@@]1(C)C(=O)[C@H](O)C3=C(C)[C@@H](OC(=O)[C@H](O)[C@@H](NC(=O)OC(C)(C)C)c4ccccc4)C[C@@](O)([C@@H](OC(=O)c4ccccc4)[C@H]21)C3(C)C [DOCETAXEL] ?
Result block: 8.26

Query block: What does the record list as pIC50 for CN(C)C/C=C/C(=O)Nc1cc2c(Nc3ccc(F)c(Cl)c3)ncnc2cc1O[C@H]1CCOC1 [AFATINIB] ?
Result block: < 6.30

Query block: What does the record list as pIC50 for COc1cc(F)c(F)c(Nc2ccc(I)cc2F)c1NS(=O)(=O)C1(CC(O)CO)CC1 (stereo not drawn) ?
Result block: < 5.30

Query block: What does the record list as pIC50 for O=C(c1cc(Cc2n[nH]c(=O)c3ccccc23)ccc1F)N1CCN(C(=O)C2CC2)CC1 [OLAPARIB] ?
Result block: < 5.30

Query block: What does the record list as pIC50 for C[C@]1(O)C[C@@H](c2nc(-c3ccc4ccc(-c5ccccc5)nc4c3)c3c(N)nccn32)C1 [LINSITINIB] ?
Result block: < 5.59

Query block: What does the record list as pIC50 for CCOc1nc(NC(=O)Cc2cc(OC)ccc2OC)cc(N)c1C#N ?
Result block: < 5.00

Query block: What does the record list as pIC50 for C=CCNC1=C2C[C@@H](C)C[C@H](OC)[C@H](O)[C@@H](C)/C=C(\C)[C@H](OC(N)=O)[C@@H](OC)/C=C\C=C(/C)C(=O)NC(=CC1=O)C2=O [TANESPIMYCIN] ?
Result block: 6.83

Query block: What does the record list as pIC50 for Cn1cc(C2=C(c3ccc(Cl)cc3Cl)C(=O)NC2=O)c2ccccc21 [SB-216763] ?
Result block: < 5.00

----------
# System: J82
# Procedure Summary: cells
# Assay type: functional, cell-based
# Condition: Homo sapiens
# Description: SANGER: Inhibition of human J82 cell growth in a cell viability assay.
pIC50: −log10 of the molar value.
For each entry below, report its pIC50 value.

Query block: What does the record list as pIC50 for CC(=O)O[C@@]12CO[C@@H]1C[C@H](O)[C@@]1(C)C(=O)[C@H](O)C3=C(C)[C@@H](OC(=O)[C@H](O)[C@@H](NC(=O)OC(C)(C)C)c4ccccc4)C[C@@](O)([C@@H](OC(=O)c4ccccc4)[C@H]21)C3(C)C [DOCETAXEL] ?
Result block: < 8.00

Query block: What does the record list as pIC50 for Cn1cncc1[C@@](N)(c1ccc(Cl)cc1)c1ccc2c(c1)c(-c1cccc(Cl)c1)cc(=O)n2C [TIPIFARNIB] ?
Result block: 5.38

Query block: What does the record list as pIC50 for COC(=O)CNC(=O)C(=O)OC ?
Result block: 4.24

Query block: What does the record list as pIC50 for C[C@]1(O)C[C@@H](c2nc(-c3ccc4ccc(-c5ccccc5)nc4c3)c3c(N)nccn32)C1 [LINSITINIB] ?
Result block: < 5.59

Query block: What does the record list as pIC50 for COc1ccc(-c2ccc3c(N4CCOC[C@@H]4C)nc(N4CCOC[C@@H]4C)nc3n2)cc1CO [AZD-8055] ?
Result block: < 5.70

Query block: What does the record list as pIC50 for O=C(NOCC1CC1)c1ccc(F)c(F)c1Nc1ccc(I)cc1Cl [CI-1040] ?
Result block: < 5.00

Query block: What does the record list as pIC50 for Cc1ccc(Nc2nccc(N(C)c3ccc4c(C)n(C)nc4c3)n2)cc1S(N)(=O)=O [PAZOPANIB] ?
Result block: 5.69

Query block: What does the record list as pIC50 for COc1ccc(C2=N[C@@H](c3ccc(Cl)cc3)[C@@H](c3ccc(Cl)cc3)N2C(=O)N2CCNC(=O)C2)c(OC(C)C)c1 [NUTLIN-3] ?
Result block: < 5.10

Query block: What does the record list as pIC50 for O=C(c1cc(Cc2n[nH]c(=O)c3ccccc23)ccc1F)N1CCN(C(=O)C2CC2)CC1 [OLAPARIB] ?
Result block: < 5.30

Query block: What does the record list as pIC50 for CCOc1nc(NC(=O)Cc2cc(OC)ccc2OC)cc(N)c1C#N ?
Result block: < 5.00
